Entry source: patent US20130174289A1

- systemTested: SLC41A1 (human)
- Sequence (chain, as listed by the source limits assumed): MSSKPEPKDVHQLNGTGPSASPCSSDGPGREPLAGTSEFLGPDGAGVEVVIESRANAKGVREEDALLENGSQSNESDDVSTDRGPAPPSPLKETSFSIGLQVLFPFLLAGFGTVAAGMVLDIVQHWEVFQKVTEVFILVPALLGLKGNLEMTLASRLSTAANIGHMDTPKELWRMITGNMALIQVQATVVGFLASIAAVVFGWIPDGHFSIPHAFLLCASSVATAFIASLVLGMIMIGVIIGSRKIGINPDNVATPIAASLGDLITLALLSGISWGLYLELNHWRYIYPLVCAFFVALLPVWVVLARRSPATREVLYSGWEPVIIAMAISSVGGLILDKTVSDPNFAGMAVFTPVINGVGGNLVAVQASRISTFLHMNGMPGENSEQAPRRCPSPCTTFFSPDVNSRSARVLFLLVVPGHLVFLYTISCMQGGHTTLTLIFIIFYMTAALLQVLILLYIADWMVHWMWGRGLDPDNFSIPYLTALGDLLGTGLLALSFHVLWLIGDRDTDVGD
- testProtocol: split-ubiquitin method screen (DUALmembrane SU-YTH) for SLC41A1 complex-forming partners
endpoint: occurrence (clones)

INSERT INTO assay_data (binder, measuredvalue) VALUES
  ('ATP synthase subunit a (Pan troglodytes) (other) MNENLFASFAAPTILGLPAAVLIILFPPLLVPTSKHLINNRLITTQQWLIQLTSKQMMTMHSTKGRTWSLMLVSLIIFITTTNLLGLLPHSFTPTTQLSMNLAMAIPLWAGAVVMGFRFKTKNALAHFLPQGTPTPLIPMLVIIETISLLIQPMALAVRLTANITAGHLLMHLIGSATLALSTINLPYALIIFTILILLTILEIAVALIQAYVFTLLVSLYLHDNT', 1),
  ('Uncharacterized protein C4orf3 (other) MEVDAPGVDGRDGLRERRGFSEGGRQNFDVRPQSGANGLPKHSYWLDLWLFILFDVVVFLFVYFLP', 2),
  ('Transmembrane protein 14A (other) MDLIGFGYAALVTFGSIFGYKRRGGVPSLIAGLFVGCLAGYGAYRVSNDKRDVKVSLFTAFFLATIMGVRFKRSKKIMPAGLVAGLSLMMILRLVLLLL', 2),
  ('Protein YIPF6 (other) MAEAEESPGDPGTASPRPLFAGLSDISISQDIPVEGEITIPMRSRIREFDSSTLNESVRNTIMRDLKAVGKKFMHVLYPRKSNTLLRDWDLWGPLILCVTLALMLQRDSADSEKDGGPQFAEVFVIVWFGAVTITLNSKLLGGNISFFQSLCVLGYCILPLTVAMLICRLVLLADPGPVNFMVRLFVVIVMFAWSIVASTAFLADSQPPNRRALAVYPVFLFYFVISWMILTFTPQ', 2),
  ('B-cell receptor-associated protein 31 (other) MSLQWTAVATFLYAEVFVVLLLCIPFISPKRWQKIFKSRLVELLVSYGNTFFVVLIVILVLLVIDAVREIRKYDDVTEKVNLQNNPGAMEHFHMKLFRAQRNLYIAGFSLLLSFLLRRLVTLISQQATLLASNEAFKKQAESASEAAKKYMEENDQLKKGAAVDGGKLDVGNAEVKLEEENRSLKADLQKLKDELASTKQKLEKAENQVLAMRKQSEGLTKEYDRLLEEHAKLQAAVDGPMDKKEE', 10),
  ('UPF0480 protein C15orf24 (other) SEVPGAAAEGSGGSGVGIGDRFKIEGRAVVPGVKPQDWISAARVLVDGEEHVGFLKTDGSFVVHDIPSGSYVVEVVSPAYRFDPVRVDITSKGKMRARYVNYIKTSEVVRLPYPLQMKSSGPPSYFIKRESWGWTDFLMNPMVMMMVLPLLIFVLLPKVVNTSDPDMRREMEQSMNMLNSNHELPDVSEFMTRLFSSKSSGKSSSGSSKTGKSGAGKRR', 4);
